- system: NAD-dependent protein deacetylase sirtuin-1 (Homo sapiens)
- Sequence (Q96EB6 whole entry): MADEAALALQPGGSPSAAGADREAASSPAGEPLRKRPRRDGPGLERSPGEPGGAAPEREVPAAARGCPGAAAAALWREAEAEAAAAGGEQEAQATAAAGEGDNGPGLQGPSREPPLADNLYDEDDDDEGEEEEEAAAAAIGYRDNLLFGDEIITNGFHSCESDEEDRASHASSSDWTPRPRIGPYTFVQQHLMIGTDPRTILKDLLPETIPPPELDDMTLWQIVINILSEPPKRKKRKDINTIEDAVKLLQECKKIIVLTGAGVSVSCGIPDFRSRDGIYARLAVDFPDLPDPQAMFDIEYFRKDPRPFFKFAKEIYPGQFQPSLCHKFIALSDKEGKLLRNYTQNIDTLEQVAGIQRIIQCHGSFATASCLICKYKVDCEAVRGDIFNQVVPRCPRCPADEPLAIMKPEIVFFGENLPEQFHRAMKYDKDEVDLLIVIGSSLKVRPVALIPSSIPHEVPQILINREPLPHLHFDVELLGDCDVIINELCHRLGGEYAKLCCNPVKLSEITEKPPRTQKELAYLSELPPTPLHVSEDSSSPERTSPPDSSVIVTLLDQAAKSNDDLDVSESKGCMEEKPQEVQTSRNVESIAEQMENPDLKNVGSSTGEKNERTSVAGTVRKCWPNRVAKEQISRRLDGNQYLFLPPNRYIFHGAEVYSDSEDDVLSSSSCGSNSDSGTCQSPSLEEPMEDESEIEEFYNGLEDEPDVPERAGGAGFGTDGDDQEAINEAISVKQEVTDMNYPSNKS
- assay_details: Inhibition of human N-terminal His-tagged SIRT1 (183 to 664 residues) expressed in Escherichia coli using Ac-Arg-Leu-Ile-Lys(Ac)-AMC as substrate preincubated for 10 mins followed by substrate addition and measured after 30 mins in presence of NAD+ by fluorescence assay

[
  {
    "molecular_string": "c1cncc(-c2c[nH]nn2)c1",
    "units_symbol": "µM",
    "IC50": 261
  }
]

* * *

Measured pIC50, listed per entry for reference.
- system: NAD-dependent protein deacylase sirtuin-5, mitochondrial (Homo sapiens)
- assay_details: Inhibition of human N-terminal His-tagged SIRT5 (34 to 302 residues) expressed in Escherichia coli using Ac-Leu-Gly-Ser-Lys(Su)-AMC as substrate preincubated for 10 mins followed by substrate addition and measured after 30 mins in presence of NAD+ by fluorescence assay
pIC50: −log10 of the molar value.

[
  {
    "compound": "CC(C)c1ccccc1Cc1cc(C(=O)Nc2ccc(S(=O)(=O)c3ccccc3C(C)(C)C)cc2)c(O)c(O)c1O",
    "result_operator": "=",
    "pIC50": 5.21
  },
  {
    "compound": "NC(=O)C1CCCc2c1[nH]c1ccc(Cl)cc21 (configuration not stated)",
    "result_operator": "<",
    "pIC50": 3.70
  }
]

* * *

- system: NAD-dependent protein deacetylase sirtuin-1 (Homo sapiens)
- assay_details: Inhibition of human N-terminal His-tagged SIRT1 (183 to 664 residues) expressed in Escherichia coli using Ac-Tyr-Lys-Leu-Lys(Ac)-AMC as substrate preincubated for 10 mins followed by substrate addition and measured after 30 mins in presence of NAD+ by fluorescence assay

[
  {
    "molecular_string": "c1cncc(-c2c[nH]nn2)c1",
    "IC50 [µM]": 146
  }
]

* * *

- system: NAD-dependent protein deacylase sirtuin-5, mitochondrial (Homo sapiens, UniProt Q9NXA8)
- Sequence (Q9NXA8 whole entry, the tested form may be a part): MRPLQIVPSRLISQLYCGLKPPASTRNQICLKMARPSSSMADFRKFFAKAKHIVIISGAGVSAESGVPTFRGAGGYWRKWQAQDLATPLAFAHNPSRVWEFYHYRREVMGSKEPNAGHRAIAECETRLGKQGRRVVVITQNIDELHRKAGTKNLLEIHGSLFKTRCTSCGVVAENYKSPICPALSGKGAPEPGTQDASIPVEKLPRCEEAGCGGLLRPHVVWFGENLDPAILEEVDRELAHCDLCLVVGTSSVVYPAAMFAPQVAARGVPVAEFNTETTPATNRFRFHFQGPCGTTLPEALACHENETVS
- assay_details: Inhibition of human N-terminal His-tagged SIRT5 (34 to 302 residues) expressed in Escherichia coli using Ac-Tyr-Lys-Leu-Lys(Ac)-AMC as substrate preincubated for 10 mins followed by substrate addition and measured after 30 mins in presence of NAD+ by fluorescence assay
pIC50: −log10 of the molar value.

[
  {
    "compound": "NC(=O)C1CCCc2c1[nH]c1ccc(Cl)cc21 (configuration not stated)",
    "system": "NAD-dependent protein deacylase sirtuin-5, mitochondrial (Homo sapiens, UniProt Q9NXA8)",
    "result_operator": "<",
    "pIC50": 3.70
  },
  {
    "compound": "CC(C)c1ccccc1Cc1cc(C(=O)Nc2ccc(S(=O)(=O)c3ccccc3C(C)(C)C)cc2)c(O)c(O)c1O",
    "system": "NAD-dependent protein deacylase sirtuin-5, mitochondrial (Homo sapiens, UniProt Q9NXA8)",
    "result_operator": "=",
    "pIC50": 4.66
  }
]

Entry source: ChEMBL document CHEMBL4680222
